# ED50 per record follows
test system: Escherichia coli; assay: in vivo antibacterial activity, mice infected intraperitoneally, oral dosing; conditions: oral at infection and 4 hours later, Reed-Muench, mortality, read-out: In-Vivo ED50, E. coli
Where a name gives a salt, the structure may show the parent alone.

[
  {
    "Compound": "CS(=O)(=O)c1ccc(N2CC(COC(=O)CCC(=O)O)OC2=O)cc1 (racemic) [Mono Sodium Salt]",
    "ED50": "40 mg/kg"
  },
  {
    "Compound": "CS(=O)(=O)c1ccc(N2C[C@H](CO)OC2=O)cc1",
    "ED50": "25 mg/kg"
  },
  {
    "Compound": "CS(=O)(=O)c1ccc(N2CC(CCl)OC2=O)cc1 (centres unmarked)",
    "ED50": "63 mg/kg"
  },
  {
    "Compound": "CS(=O)(=O)c1ccc(N2CC(CO)OC2=O)cc1 (racemic)",
    "ED50": "40 mg/kg"
  },
  {
    "Compound": "O=C1OC(CO)CN1c1ccc(S(=O)(=O)C(F)F)cc1 (centres unmarked)",
    "ED50": "27 mg/kg"
  }
]
